System: SW-620
Experiment: NCI tumour cell line growth inhibition, 48 h
Calls of active or inactive are those of the source. Cut-off read from the data, not from the text of the source: active = GI50 up to about 1.1 µM and inactive = higher.
Outcome field: choose from t (active), f (inactive)

Exam item: Any idea what this test logged for `COc1ccc(-n2sc3ncc(C)cc3c2=O)cc1` ?
Marked response: f

Exam item: Any idea what this test logged for `COc1ccc(OC)c(/C=C2\CCc3ccccc3C2=O)c1` ?
Marked response: t

Exam item: Any idea what this test logged for `O=C1c2cccc3cc([N+](=O)[O-])cc(c23)C(=O)N1CCCN1CCN(CCCN2C(=O)c3cccc4cc([N+](=O)[O-])cc(c34)C2=O)CC1` ?
Marked response: t

Exam item: Any idea what this test logged for CCN(CC)CCOCC1CCCN2CCCCC12 (stereo unspecified) ?
Marked response: f

Exam item: Any idea what this test logged for `Cc1c(C#N)c2nnn(-c3ccc([N+](=O)[O-])cc3)c(=O)n2c1-c1ccccc1` ?
Marked response: f

====

# key: entry, value: GI50
Tested on: NCI/ADR-RES
Test: NCI tumour cell line growth inhibition, 48 h
The source made the active and inactive calls. Rule as the data show it: active = GI50 up to about 1.1 µM and inactive = higher.

For orientation, consider the following solved cases.
>>> result("O=C1OC(C2Cc3ccc4c(c3C2=O)CCCC4)c2ccccc21 (stereo not given)")
"46 µM (inactive)"
>>> result("O=C(CCCN1CCC(Nc2ccccc2)(c2nnnn2C2CCCCC2)CC1)c1ccc(F)cc1")
"21 µM (inactive)"
>>> result("N#Cc1c(C#N)c(-c2cccc([N+](=O)[O-])c2)n(-c2ccccc2)c1N")
"> 100 µM (inactive)"
>>> result("NCCN1C(=O)CN=C(c2ccc(Cl)cc2)c2cc(Cl)ccc21")
"15.9 µM (inactive)"

Exam item: Provide measured GI50 value, entry: `Cc1cc(S(=O)(=O)NC(=C(C#N)C#N)[n+]2ccc(N(C)C)cc2)c([S-])cc1Cl`
Marked response: > 100 µM (inactive)

Exam item: Provide measured GI50 value, entry: `CN1CN(c2ccccc2)C2(CCN(Cc3csc4ccccc34)CC2)C1=O`
Marked response: 8.97 µM (inactive)

Exam item: Provide measured GI50 value, entry: `CC(C)OC(=O)NNc1cc(Cl)ccc1Cl`
Marked response: > 100 µM (inactive)

Exam item: Provide measured GI50 value, entry: `CC(C)(C)/C(O)=C\c1nc2cc(F)c(F)cc2[nH]c1=O`
Marked response: > 100 µM (inactive)

Exam item: Provide measured GI50 value, entry: CCOC(=O)C(Cl)(Cl)/S(=N\S(=O)(=O)c1ccccc1)NC(=O)c1ccccc1 (stereo not given)
Marked response: > 100 µM (inactive)

Exam item: Provide measured GI50 value, entry: `C=CCN(c1cc(OC)c2[nH]c(C(=O)OCC)c(C)c2c1[N+](=O)[O-])S(C)(=O)=O`
Marked response: 23.6 µM (inactive)

====

Tested on: SK-MEL-2
Assay: NCI tumour cell line growth inhibition, 48 h
Activity calls are given as the source filed them. Cut-off read from the data, not from the text of the source: active = GI50 up to about 1.1 µM and inactive = higher.
assay_endpoint: GI50

For orientation, consider the following solved cases.
>>> result("COc1cc(C2c3cc4c(cc3OC(N3CCOCC3)C2C)OCO4)cc(OC)c1O (centres undefined)")
"6.9 µM (inactive)"
>>> result("CC(C)CCCC(C)[C@H]1CC[C@H]2N/C(=N/c3ccccc3)CCC[C@]12C (some centres undefined)")
"1.67 µM (inactive)"
>>> result("Cc1nc2c(Cl)cc(Cl)cc2c2c1CCO2")
"> 100 µM (inactive)"
>>> result("COc1cc(/C=C2\\CC3C4CC[C@H]5C[C@@H](O)CC[C@]5(C)C4CC[C@]3(C)\\C2=N\\O)cc(OC)c1OC (some centres undefined)")
"11.7 µM (inactive)"
>>> result("CCOC(=O)C(Cl)(Cl)/S(=N\\S(=O)(=O)c1ccccc1)NC(=O)c1ccccc1 (centres undefined)")
"> 100 µM (inactive)"

Now take the following compound into account.
Exam item: Provide measured GI50 value, entry: CC(C)(C)OC(=O)NC(Cc1ccc(OC(C)(C)C)cc1)C(=O)N[C@H]1CC[C@H](C(=O)O)C1 (some centres undefined)
Marked response: > 100 µM (inactive)

src = ChEMBL document CHEMBL1201862
